experimental_target: AXL (Homo sapiens, UniProt P30530)
Sequence (P30530 26-894): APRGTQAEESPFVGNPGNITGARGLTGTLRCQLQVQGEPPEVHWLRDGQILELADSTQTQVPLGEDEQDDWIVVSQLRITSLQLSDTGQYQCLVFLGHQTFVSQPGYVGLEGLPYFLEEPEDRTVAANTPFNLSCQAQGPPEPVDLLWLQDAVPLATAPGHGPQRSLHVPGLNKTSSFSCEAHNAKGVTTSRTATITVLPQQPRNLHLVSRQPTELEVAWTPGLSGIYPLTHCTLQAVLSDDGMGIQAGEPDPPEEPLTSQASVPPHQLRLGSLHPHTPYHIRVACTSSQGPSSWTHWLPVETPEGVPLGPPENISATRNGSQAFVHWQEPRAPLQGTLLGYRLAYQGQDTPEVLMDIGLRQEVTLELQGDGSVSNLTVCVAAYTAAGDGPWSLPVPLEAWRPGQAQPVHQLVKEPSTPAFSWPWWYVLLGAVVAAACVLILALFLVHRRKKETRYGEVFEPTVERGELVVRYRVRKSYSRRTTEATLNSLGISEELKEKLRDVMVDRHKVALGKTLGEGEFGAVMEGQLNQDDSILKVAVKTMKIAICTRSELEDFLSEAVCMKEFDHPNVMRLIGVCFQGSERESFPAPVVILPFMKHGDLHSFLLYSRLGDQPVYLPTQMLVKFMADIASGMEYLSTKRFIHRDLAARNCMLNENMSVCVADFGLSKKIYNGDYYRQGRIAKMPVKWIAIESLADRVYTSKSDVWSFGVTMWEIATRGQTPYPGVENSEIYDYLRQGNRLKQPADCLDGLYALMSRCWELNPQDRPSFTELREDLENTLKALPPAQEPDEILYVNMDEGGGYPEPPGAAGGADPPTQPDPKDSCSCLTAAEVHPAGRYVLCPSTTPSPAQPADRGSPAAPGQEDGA
assay_text: kinase assay IC50 (called cell-based kinase assay in the Figure […] legend); also reduced phospho-AXL in HCC827-osi cells
pIC50: −log10 of the molar value.
observation_type: pIC50

INSERT INTO results (compound, recorded_value) VALUES
  ('CN1C(=O)N(c2cc(NC(=O)c3cccc(C(F)(F)F)c3)cnc2Cl)Cc2cnc(Nc3ccccc3)nc21', 8.36);

###

experimental_target: FGFR1 (fibroblast growth factor receptor 1) (Homo sapiens, UniProt P11362)
Sequence (P11362 22-822): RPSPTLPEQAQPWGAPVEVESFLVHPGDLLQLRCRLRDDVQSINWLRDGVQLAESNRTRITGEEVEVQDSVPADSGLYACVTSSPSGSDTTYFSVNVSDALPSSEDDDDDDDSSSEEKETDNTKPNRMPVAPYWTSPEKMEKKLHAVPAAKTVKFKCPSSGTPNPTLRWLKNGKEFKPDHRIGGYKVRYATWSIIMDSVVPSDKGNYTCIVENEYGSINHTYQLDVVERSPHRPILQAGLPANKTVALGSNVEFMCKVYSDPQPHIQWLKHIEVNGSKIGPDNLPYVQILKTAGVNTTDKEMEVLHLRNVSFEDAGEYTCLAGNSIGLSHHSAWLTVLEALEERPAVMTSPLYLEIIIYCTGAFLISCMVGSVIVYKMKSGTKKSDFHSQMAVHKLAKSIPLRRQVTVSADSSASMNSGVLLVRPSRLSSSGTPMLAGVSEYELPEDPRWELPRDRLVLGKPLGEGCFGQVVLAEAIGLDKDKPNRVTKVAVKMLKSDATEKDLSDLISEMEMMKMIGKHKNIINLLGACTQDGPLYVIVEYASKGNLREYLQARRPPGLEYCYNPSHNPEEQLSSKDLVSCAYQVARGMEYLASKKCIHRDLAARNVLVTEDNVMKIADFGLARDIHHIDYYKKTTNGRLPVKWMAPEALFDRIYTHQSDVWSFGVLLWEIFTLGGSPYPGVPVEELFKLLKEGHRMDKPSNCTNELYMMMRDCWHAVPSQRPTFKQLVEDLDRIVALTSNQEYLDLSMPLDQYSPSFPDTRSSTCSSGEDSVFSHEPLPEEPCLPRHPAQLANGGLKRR
assay_text: kinase assay IC50 (called cell-based kinase assay in the Figure […] legend); also reduced phospho-FGFR1 in HCC827-osi cells
pIC50: −log10 of the molar value.
observation_type: pIC50

INSERT INTO results (compound, observation_type, recorded_value) VALUES
  ('CN1C(=O)N(c2cc(NC(=O)c3cccc(C(F)(F)F)c3)cnc2Cl)Cc2cnc(Nc3ccccc3)nc21', 'pIC50', 8.66);
